MEASURED_ON: T1, PUF4 RNA-binding domain (Saccharomyces cerevisiae, UniProt P25339 537-888)
T1 sequence: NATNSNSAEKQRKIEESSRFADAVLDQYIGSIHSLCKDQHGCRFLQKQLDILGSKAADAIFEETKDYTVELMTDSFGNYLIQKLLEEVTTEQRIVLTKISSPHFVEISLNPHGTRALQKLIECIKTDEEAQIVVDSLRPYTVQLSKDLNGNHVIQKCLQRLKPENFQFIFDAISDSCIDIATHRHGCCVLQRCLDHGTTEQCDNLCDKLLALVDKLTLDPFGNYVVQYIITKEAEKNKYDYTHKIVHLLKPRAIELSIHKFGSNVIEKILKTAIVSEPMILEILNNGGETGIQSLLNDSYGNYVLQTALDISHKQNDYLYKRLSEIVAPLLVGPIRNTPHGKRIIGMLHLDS
ASSAY_NOTES: Mg; RNA-MaP; 20 mM Na-HEPES pH 7.4, 30 mM KOAc, 0.75 mM MgCl2, 0.1% Tween-20, 5% glycerol, 0.1 mg/mL BSA, 2 mM DTT; 25 C; 0.0125-409.6 nM protein
STATED_CONDITIONS: tags: N-His6-TEV cleaved; C-SNAP kept, Cy3B-labelled; label: tethered on chip by stalled RNA polymerase
OBSERVABLE: Kd (nM)
Number only, in nM; omit the unit.

// worked examples, Kd included
1. Ic_S4_P5E.1_K5.1_C5.1_H5.1_A5.1_[T6C]_[A7T]_F5.1_[T8A]_[A10C]_T5.1 (ssRNA) RNA: UUUGACAACUGAUCGUUCUUUCUUGUAUCUAUCUUCUUUCUCGAUCAGUUGUCUUU = 13.6
2. UCUCUUUGUAAAUUAAUCUCUU (ssRNA) [Ic_S1_P5E.1_K5.1_C5.1_H5.1_A5.1_[T5A]_[T6A]_[A7T]_F5.1_[T9A]_T5.1] = 1.57
3. UCUCUUUGUUUUAUUUUCUCUU (ssRNA) [Ib_S1_P5E.1_K5.1_C5.1_H5.1_[A4T]_A5.1_F5.1_[A10T]_T5.1] = 864
4. UCUCUUCUUAUAUUAUUAGUUCUCUU (ssRNA) [Id_ii_S1_P5E.3_K5.2_C5.2_H5.2_A5.1_F5.1_T5.2_[T11G]_[A12T]] = 82.2
5. ACAAACCCUAUAUAUACUACAAAC (ssRNA) [Id_ii_S3_P3E.3_K3.2_C3.2_[T-1C]_H3.2_A3.1_F3.1_T3.2_[T9C]_[A10T]] = 45.5
6. Id_ii_S2_P5E.4_K5.3_C5.2_[C-2G]_[T-1C]_H5.3_A5.1_F5.1_T5.2_[A12T] (ssRNA) RNA: UUUGAUUAAUAUGAUAUCGUUCUUUCUGCACACUUAUUAUUUUCUUUCUCGAUAUCAUAUUAAUCUUU = 341
7. Ie_S2_P5E.1_K5.1_C5.1_H5.1_A5.1_F5.1_[+9CCTC]_T5.1 (ssRNA) RNA: UUUGAUUAAUAUGAUAUCGUUCUUUCUUGUAUUAUUCCUCAUUCUUUCUCGAUAUCAUAUUAAUCUUU = 16.4
8. Id_ii_S4_P3E.2_K3.1_C3.2_[C-2T]_H3.1_A3.1_F3.1_T3.2 (ssRNA) RNA: UUUGACAACUGAUCGUUCUUUCUUUUGUAUAUAUAUUCUUUCUCGAUCAGUUGUCUUU = 2.14

Briefly, Kd measured for UCUCUUUGUCUAUUUUCUCUU (ssRNA) [Ib_S1_P4E.1_K4.1_C4.1_H4.1_[A4C]_A4.1_F4.1_[A9T]_T4.1] : 807
